Source: patent USRE47689E1

# reported melting point; entries follow

A selection of reference data follows.
| inputSmiles | melting point |
| --- | --- |
| Cc1cc(F)c2nc(-c3cc4ccc(N5CCN6CCC[C@H]6C5)cc4oc3=O)cn2c1 | 296 to 306 °C |
| Cc1cn2cc(-c3cc4ccc(N5C[C@H](O)[C@@H](N6CCCC6)C5)cc4oc3=O)nc2c(C)n1 | 273 to 275 °C |
| C[C@@H]1CN(c2ccc3cc(-c4cc5ccccc5s4)c(=O)oc3c2)C[C@H](C)N1 | 271 to 273 °C |

In: # lookup: melting point of Cc1cn2cc(-c3cc4ccc(N5CCN6C[C@H](O)C[C@H]6C5)cc4oc3=O)cc2c(C)n1
Out: 185 to 188 °C

In: What does the data say about its melting point? Entry: O=c1oc2cc(N3CCNCC3)ccc2cc1-c1ccncc1F
Out: 202 to 204 °C

In: Reported melting point, molecule Cc1csc(-c2cc3ccc(N4CCCNCC4)cc3oc2=O)n1 : ____
Out: 195 to 203 °C

In: Would you kindly share the measured melting point for CSc1nccn2cc(-c3cc4ccc(N5C[C@@H](C)N[C@@H](C)C5)cc4oc3=O)nc12 ?
Out: 283 to 285 °C
